- Experiment Summary: Cytotoxicity against human HeLa cells assessed as reduction in cell viability incubated for 72 hrs by CellTiter Glo assay
- Format: toxicity, cell-based
Measured Endpoint: IC50 at 72 h (µM)
The reply should be a number in µM, with the unit left off.

# input # IC50 at 72 h lookup, item `O=C(/C=C/c1ccc(CN(CCO)CCc2c[nH]c3ccccc23)cc1)NO`
# output 0.0308

Next:
# input Return reported IC50 at 72 h; argument: `Cc1[nH]c2ccccc2c1CCNCc1ccc(/C=C/C(=O)NO)cc1`
# output 0.0109

* * *

- Experiment Summary: physchem
- Run Parameters: MeOH/H2O, pH 7
- Description: Solubility of the compound in MeOH/H20 at pH 7 incubated for 24 hrs by LC-MS/MS analysis
Measured Endpoint: solubility at 24 h

# input Which solubility at 24 h is reported for this compound? CN1CCc2c(c3ccccc3n2Cc2ccc(C(=O)NO)cc2)C1 [TUBASTATIN A]
# output < 1000 µg/mL
